Target: T1, CD123-his-biotin抗原 (Homo sapiens (Human), UniProt P26951 19-305, biotin label (site not stated))
T1 construct: Bought from SinoBiological and biotin-labelled; also called CD123-Biotin; CD123抗原; not shown: his tag
T1 sequence: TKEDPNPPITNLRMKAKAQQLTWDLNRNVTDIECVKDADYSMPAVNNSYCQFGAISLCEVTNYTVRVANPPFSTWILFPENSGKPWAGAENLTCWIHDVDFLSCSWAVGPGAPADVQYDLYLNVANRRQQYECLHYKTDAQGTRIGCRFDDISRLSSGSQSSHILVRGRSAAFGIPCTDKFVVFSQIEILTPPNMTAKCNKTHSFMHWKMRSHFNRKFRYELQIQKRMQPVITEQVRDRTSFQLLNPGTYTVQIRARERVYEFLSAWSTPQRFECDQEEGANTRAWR
Test: BLI (Octet RED96), CD123-Biotin on AR2G sensor, scFv periplasmic extract as analyte
This listing pairs binders with measured koff.

| Binder | Measurement units | koff |
| --- | --- | --- |
| 2D2 (scFv, V domains shown, also called 抗体2D2) VH: QVQLQQPGAELVRPGASVKLSCKASGYKFQSYWMNWVKQRPDQGLEWIGRIDPYDSETHYNQKFKDKAILTVDKSSSTAYMQLSSLTSEDSAVYYCARGNWDDYWGQGTTLTVSS VL: DVQITQSPSYLAASPGETITINCRASKSISKDLAWYQEKPGKTNKLLIYSGSTLQSGIPSRFSGSGSGTDFTLTISSLEPEDFAMYYCQQHNKYPYTFGGGTKLEIK | s⁻¹ | 0.00014 |
| 5E10 (scFv, V domains shown) VH: QVQLQQPGAELVRPGASVKLSCKASGYTFTSYWMNWVKQRPDQGLEWIGRIDPYDSETHYNQKFKDKAILTVDKSSSTAYMQLSSLTSEDSAVYYCARGNWDDYWGQGTTLTVSS VL: DVQITQSPSYLAASPGETITINCRASKSISKDLAWYQEKPGKTNKLLIYSSSQRLSGIPSRFSGSGSGTDFTLTISSLEPEDFAMYYCQQHNKYPYTFGGGTKLEIK | s⁻¹ | 0.000254 |
| 5B1 (scFv, V domains shown) VH: QVQLQQPGAELVRPGASVKLSCKASGYTFTSYWMNWVKQRPDQGLEWIGRIDPYDSETHYNQKFKDKAILTVDKSSSTAYMQLSSLTSEDSAVYYCARGNWDDYWGQGTTLTVSS VL: DVQITQSPSYLAASPGETITINCRASKSISKDLAWYQEKPGKTNKLLIYSGSTLQSGIPSRFSGSGSGTDFTLTISSLEPEDFAMYYCQQHNRYPYTFGGGTKLEIK | s⁻¹ | 0.00012 |
| 7F1 (scFv, V domains shown, also called 抗体7F1) VH: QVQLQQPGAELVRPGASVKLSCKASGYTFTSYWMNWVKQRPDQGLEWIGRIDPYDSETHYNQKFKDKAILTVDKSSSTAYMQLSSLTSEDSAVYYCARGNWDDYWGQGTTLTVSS VL: DVQITQSPSYLAASPGETITINCRASKSISKDLAWYQEKPGKTNKLLIYSGSTLQSGIPSRFSGSGSGTDFTLTISSLEPEDFAMYYCQQSNKYPYTFGGGTKLEIK | s⁻¹ | 2.47e-05 |
